Readings of log10 of EC50 for the listed compounds
# targetUnderTest: human GPBAR1 receptor (Homo sapiens (Human), UniProt Q8TDU6)
# Sequence (Q8TDU6 whole entry): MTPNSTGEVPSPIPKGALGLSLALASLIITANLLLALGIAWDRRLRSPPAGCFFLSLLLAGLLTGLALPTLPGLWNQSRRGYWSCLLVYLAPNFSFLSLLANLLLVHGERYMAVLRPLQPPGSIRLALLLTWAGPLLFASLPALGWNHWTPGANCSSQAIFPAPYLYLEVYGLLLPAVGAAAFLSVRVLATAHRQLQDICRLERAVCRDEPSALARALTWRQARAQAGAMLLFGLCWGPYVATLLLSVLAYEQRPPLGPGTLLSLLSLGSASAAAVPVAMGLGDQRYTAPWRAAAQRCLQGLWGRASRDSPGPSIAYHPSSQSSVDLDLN
# testSummary: functional cAMP assay in CHO-dhfr(minus) cells expressing human GPBAR1 receptors
# measurementSetup: CHO-dhfr(minus) cells expressing human GPBAR1, 30 min at 30° C.
measureName: log10 of EC50 (log10 of the value in nM)

1) Cc1ccccc1-c1cc(-c2ccc[nH]2)ncc1N(C)C(=O)c1cc(C(F)(F)F)cc(C(F)(F)F)c1 [Example 113]	3.30
2) CS(=O)(=O)c1cc(C(=O)N(CC(N)=O)c2cnccc2-c2ccccc2OC(F)(F)F)cc(C(F)(F)F)c1 [Example 319]	3.52
3) CS(=O)(=O)c1cc(C(=O)N(CC(F)(F)F)c2cnccc2-c2ccccc2Cl)cc(C(F)(F)F)c1 [Example 287]	2.73
4) Cc1c(F)cccc1-c1ccncc1N(C)C(=O)c1cc(C(F)(F)F)cc(S(C)(=O)=O)c1 [Example 295]	2.65
5) CN(C(=O)c1cc(C(F)(F)F)cc(C(F)(F)F)c1)c1cnccc1-c1ccc(F)cc1OCc1ccccc1 [Example 43]	3.31
6) COc1nccc(-c2ccncc2N(C)C(=O)c2cc(C(F)(F)F)cc(C(F)(F)F)c2)c1Cl [Example 50]	2.83
7) COc1cc(C(=O)N(C)c2cnccc2-c2ccc(F)cc2OC)cc(C(F)(F)F)n1 [Example 206]	1.36

---

# targetUnderTest: UniProt Q8TDU6
# testSummary: functional cAMP assay in CHO-dhfr(minus) cells expressing human GPBAR1 receptors
# measurementSetup: CHO-dhfr(minus) cells expressing human GPBAR1, 30 min at 30° C.
The threshold is 300 nM. Values of EC50 beneath it are tagged rule met; values meeting or exceeding it are tagged rule not met.

1) COc1cc(F)ccc1-c1ccncc1N(C)C(=O)c1cc(OCCO)cc(C(F)(F)F)c1 [Example 240]	rule not met
2) Cc1ccccc1-c1cc(Cl)ncc1N(C)C(=O)c1cc(C(F)(F)F)cc(C(F)(F)F)c1 [Example 12]	rule not met
3) O=C(NCCN(C(=O)c1cc(C(F)(F)F)cc(C(F)(F)F)c1)c1cnccc1-c1ccccc1Cl)OCc1ccccc1 [Example 125]	rule not met
4) Cc1cc(C(=O)N(C)c2cnccc2-c2ccccc2C)cc(Cl)n1 [Example 119]	rule not met
5) COCCN(C)c1cc(-c2ccccc2C)c(N(C)C(=O)c2cc(C(F)(F)F)cc(C(F)(F)F)c2)cn1 [Example 18]	rule not met
6) COc1cc(F)ccc1-c1ccncc1N(CCS(C)(=O)=O)C(=O)c1cc(C(F)(F)F)nc(C(F)(F)F)c1 [Example 162]	rule met
7) COc1cc(F)ccc1-c1ccncc1N(C[C@@H]1CCCOC1)C(=O)c1cc(C(F)(F)F)cc(S(C)(=O)=O)c1 [Example 299]	rule not met
8) CN(C(=O)c1cc(C(F)(F)F)cc(C(F)(F)F)c1)c1cnccc1-c1ccccc1 [Example 322]	rule met
9) COc1cc(F)ccc1-c1ccncc1N(CC(F)(F)F)C(=O)c1cc(C(F)(F)F)cc(S(=O)(=O)N(C)C)c1 [Example 133]	rule met
10) COc1cc(F)c(F)cc1-c1ccncc1N(CCS(C)(=O)=O)C(=O)c1cc(C(F)(F)F)nc(C(F)(F)F)c1 [Example 158]	rule met
11) COc1cc(F)ccc1-c1ccncc1N(C)C(=O)c1cc(C(F)(F)F)cc(S(=O)(=O)CCNS(N)(=O)=O)c1 [Example 269]	rule met
12) COC(=O)CN(C(=O)c1cc(C(F)(F)F)cc(S(C)(=O)=O)c1)c1cnccc1-c1cccnc1OC [Example 180]	rule met
13) Cc1ccccc1-c1ccncc1N(C)C(=O)c1cc(C(F)(F)F)cc(S(C)(=O)=O)c1 [Example 114]	rule met
14) COC(=O)CN(C(=O)c1cc(C(F)(F)F)nc(C(F)(F)F)c1)c1cnccc1-c1ccc(F)cc1OC [Example 176]	rule met
15) CN(C(=O)c1cc(C(F)(F)F)cc(C(F)(F)F)c1)c1cnccc1-c1ccc(F)cc1OCC#N [Example 51]	rule met
16) COc1ncccc1-c1ccncc1N(CC(N)=O)C(=O)c1cc(C(F)(F)F)cc(S(C)(=O)=O)c1 [Example 181]	rule not met
17) COc1ccc(F)cc1-c1ccncc1N(C)C(=O)c1cc(C(F)(F)F)cc(C(F)(F)F)c1 [Example 58]	rule met
18) Cc1ccccc1-c1ccncc1N(C)C(=O)c1cc(C(F)(F)F)nc(S(C)(=O)=O)c1 [Example 194]	rule met
19) COc1cc(F)ccc1-c1ccncc1N(C)C(=O)c1cc(C(F)(F)F)nc(C(F)(F)F)c1 [Example 148]	rule met
20) COc1cc(F)ccc1-c1ccncc1N(C)C(=O)c1cc(SC2COC2)cc(C(F)(F)F)c1 [Example 251]	rule met
21) Cc1cc(C)cc(C(=O)N(C)c2cnccc2-c2ccccc2C)c1 [Example 96]	rule met
22) COc1ncccc1-c1ccncc1N(CC(F)(F)F)C(=O)c1cc(C(F)(F)F)cc(C(F)(F)F)c1 [Example 135]	rule met
23) COc1c(-c2ccncc2N(C)C(=O)c2cc(C(F)(F)F)cc(C(F)(F)F)c2)ccc(F)c1F [Example 60]	rule met
24) COc1cc(F)ccc1-c1ccncc1N(C)C(=O)c1cc(SC2CNC2)cc(C(F)(F)F)c1 [Example 275]	rule not met
25) COc1cc(F)ccc1-c1ccncc1N(C)C(=O)c1cc(C2CC2)cc(S(C)(=O)=O)c1 [Example 260]	rule met
26) O=C(c1cc(C(F)(F)F)cc(C(F)(F)F)c1)N(CCO)c1cnccc1-c1ccccc1Cl [Example 115]	rule met
27) Cc1ccccc1-c1ccncc1N(C)C(=O)c1cc(C(F)(F)F)nc(C(F)(F)F)c1 [Example 131]	rule met
28) COc1ccc(F)c(-c2ccncc2N(C)C(=O)c2cc(C(F)(F)F)cc(S(C)(=O)=O)c2)c1F [Example 285]	rule not met
29) COc1cc(F)c(F)cc1-c1ccncc1N(CC(F)(F)F)C(=O)c1cc(F)cc(C(F)(F)F)c1 [Example 132]	rule not met

---

Reported log10(EC50) values follow for various molecules
# targetUnderTest: human GPBAR1 receptor (Homo sapiens (Human))
# testSummary: functional cAMP assay in CHO-dhfr(minus) cells expressing human GPBAR1 receptors
# measurementSetup: CHO-dhfr(minus) cells expressing human GPBAR1, 30 min at 30° C.
measureName: log10(EC50) (log10 of the value in nM)

1. CCOC(=O)CCc1cc(C(=O)N(C)c2cnccc2-c2ccc(F)cc2OC)cc(C(F)(F)F)c1 [Example 266]	2.25
2. COc1cc(F)ccc1-c1ccnc(Cl)c1N(C)C(=O)c1cc(C(F)(F)F)cc(S(C)(=O)=O)c1 [Example 212]	1.88
3. Cc1ccccc1-c1ccncc1N(C)C(=O)c1cc([N+](=O)[O-])cc(C(F)(F)F)c1 [Example 184]	1.18
4. CN(C(=O)c1cc(C(F)(F)F)cc(C(F)(F)F)c1)c1cnccc1-c1ccccc1OC(F)(F)F [Example 31]	1.46
5. COc1cc(F)ccc1-c1ccncc1N(C)C(=O)c1cc(O)cc(C(F)(F)F)c1 [Example 226]	2.98
6. COc1cc(F)ccc1-c1cc(C)ncc1N(C)C(=O)c1cc(C(F)(F)F)cc(S(=O)(=O)C2COC2)c1 [Example 314]	2.06
7. CS(=O)(=O)CCN(C(=O)c1cc(C(F)(F)F)cc(C(F)(F)F)c1)c1cnccc1-c1ccccc1F [Example 191]	2.05

---

# targetUnderTest: human GPBAR1 receptor (Homo sapiens (Human))
# testSummary: functional cAMP assay in CHO-dhfr(minus) cells expressing human GPBAR1 receptors
# measurementSetup: CHO-dhfr(minus) cells expressing human GPBAR1, 30 min at 30° C.
# Procedure: The final clone was verified by DNA sequence analysis. The plasmid was transfected into CHO cells deficient in dihydrofolate reductase activity (CHO-dhfr-) using Lipofectamine plus (Invitrogen). Clones were isolated in limited dilution conditions and identified by activities in the cAMP assay using lithocholic acid as agonist. EC50 values were determined using Activity Base analysis (ID Business Solution, Limited). […]
pEC50: −log10 of the molar value.
pEC50 below 7 gives no; pEC50 at or above it gives yes.

1) COc1cc(F)ccc1-c1ccncc1N(C)C(=O)c1cc(C(F)(F)F)cc(S(=O)(=O)N(C)C)c1	yes
2) COc1cc(F)c(F)cc1-c1ccncc1N(CC(F)F)C(=O)c1cc(C(F)(F)F)nc(C(F)(F)F)c1	yes
3) COc1cc(F)ccc1-c1ccncc1N(C)C(=O)c1cc(C(F)(F)F)cc(S(=O)(=O)CCCCC(=O)O)c1	no
4) CS(=O)(=O)CCN(C(=O)c1cc(C(F)(F)F)cc(C(F)(F)F)c1)c1cnccc1-c1ccccc1Cl	no
5) COC(=O)CCS(=O)(=O)c1cc(C(=O)N(C)c2cnccc2-c2ccc(F)cc2OC)cc(C(F)(F)F)c1	yes
6) Cc1cccc(-c2ccncc2N(C)C(=O)c2cc(C(F)(F)F)cc(C(F)(F)F)c2)c1C	no
7) CN(C(=O)c1cc(C(F)(F)F)cc(C(F)(F)F)c1)c1cnccc1-c1ccnc(Cl)c1F	no
8) COC(=O)CCSc1cc(C(=O)N(C)c2cnccc2-c2ccc(F)cc2OC)cc(C(F)(F)F)c1	no
9) Cc1ccccc1-c1ccncc1N(C)C(=O)c1cc(N2CCOCC2)cc(C(F)(F)F)c1	no
10) COc1cc(F)c(F)cc1-c1ccncc1N(C)C(=O)c1cc(C(F)(F)F)cc(S(C)(=O)=O)c1	no
11) COCCOc1cc(C(=O)N(C)c2cnccc2-c2ccc(F)cc2OC)cc(C(F)(F)F)c1	no
12) Cc1cc(Cl)cc(C(=O)N(C)c2cnccc2-c2ccccc2C)n1	no

Hello, the source for this data is patent US10385022B2, in case you need it.
